Tested on: Vero
assay_procedure: Concentration required to cause a microscopically detectable alteration of normal Vero cell morphology
Type: functional, cell-based
condition_label: Chlorocebus sabaeus
pIC50: −log10 of the molar value.
# reported pIC50; entries follow

* O=C(O)CC(SCCCOC[C@H]1O[C@@](COCCCSC(CC(=O)O)C(=O)O)(O[C@H]2O[C@H](COCCCSC(CC(=O)O)C(=O)O)[C@@H](OCCCSC(CC(=O)O)C(=O)O)[C@H](OCCCSC(CC(=O)O)C(=O)O)[C@H]2OCCCSC(CC(=O)O)C(=O)O)[C@@H](OCCCSC(CC(=O)O)C(=O)O)[C@@H]1OCCCSC(CC(=O)O)C(=O)O)C(=O)O (stereo partly drawn) | < 4.05
* O=C(O)CC(SCCCOC[C@H]1O[C@@H](OCCCSC(CC(=O)O)C(=O)O)[C@H](OCCCSC(CC(=O)O)C(=O)O)[C@@H](OCCCSC(CC(=O)O)C(=O)O)[C@@H]1OCCCSC(CC(=O)O)C(=O)O)C(=O)O (stereo partly drawn) | < 3.83

Then this compound:
Challenge: Return reported pIC50; argument: O=C(O)CC(SCCCOC[C@H]1O[C@@H](O[C@H]2[C@H](OCCCSC(CC(=O)O)C(=O)O)[C@@H](OCCCSC(CC(=O)O)C(=O)O)[C@@H](OCCCSC(CC(=O)O)C(=O)O)O[C@@H]2COCCCSC(CC(=O)O)C(=O)O)[C@H](OCCCSC(CC(=O)O)C(=O)O)[C@@H](OCCCSC(CC(=O)O)C(=O)O)[C@@H]1OCCCSC(CC(=O)O)C(=O)O)C(=O)O (stereo partly drawn)
Response given: < 3.74
